tested on: PXR homodimer (NR concentration 270 nM); assay: PBM binding z-score (relative to random genomic background probes); higher = stronger binding; sequences stand for … in GC…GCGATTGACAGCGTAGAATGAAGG
Each entry gets No if its PBM binding z-score stays under 1, and Yes if its PBM binding z-score is 1 or above.

>>> qualitative_label("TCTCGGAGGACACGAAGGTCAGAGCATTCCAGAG")
"No"
>>> qualitative_label("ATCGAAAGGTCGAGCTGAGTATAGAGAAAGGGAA")
"No"
>>> qualitative_label("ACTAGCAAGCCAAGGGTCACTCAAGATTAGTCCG")
"No"
>>> qualitative_label("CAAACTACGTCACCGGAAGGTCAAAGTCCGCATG")
"Yes"
>>> qualitative_label("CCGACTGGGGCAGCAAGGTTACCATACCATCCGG")
"No"
>>> qualitative_label("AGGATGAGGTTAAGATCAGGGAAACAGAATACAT")
"Yes"
>>> qualitative_label("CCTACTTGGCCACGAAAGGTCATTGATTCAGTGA")
"Yes"

* * *

test system: PPARg:RXRa 270nM:90nM, anti-RXR (NR concentration 270 nM, RXRa partner concentration 90 nM); assay: PBM binding z-score (relative to random genomic background probes); higher = stronger binding; sequences stand for … in GC…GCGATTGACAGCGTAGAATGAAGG
Reported PBM binding z-score by item:
VALUE TYPE: PBM binding z-score

>>> result("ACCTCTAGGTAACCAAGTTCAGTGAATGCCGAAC")
0.581
>>> result("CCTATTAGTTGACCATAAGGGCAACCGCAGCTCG")
0.368
>>> result("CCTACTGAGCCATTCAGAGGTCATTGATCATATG")
1.84
>>> result("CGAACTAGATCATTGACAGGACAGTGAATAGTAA")
-0.333
>>> result("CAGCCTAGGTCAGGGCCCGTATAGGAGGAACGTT")
0.734
>>> result("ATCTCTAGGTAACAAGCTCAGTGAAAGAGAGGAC")
0.77
>>> result("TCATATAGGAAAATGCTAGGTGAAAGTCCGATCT")
2.3
>>> result("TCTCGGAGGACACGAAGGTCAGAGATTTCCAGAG")
1.93
>>> result("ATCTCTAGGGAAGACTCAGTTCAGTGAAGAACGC")
-0.317
>>> result("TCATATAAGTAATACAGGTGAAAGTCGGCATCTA")
2.38
>>> result("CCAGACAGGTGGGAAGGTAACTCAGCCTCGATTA")
-0.544
>>> result("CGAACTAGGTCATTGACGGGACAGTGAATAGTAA")
6.38
>>> result("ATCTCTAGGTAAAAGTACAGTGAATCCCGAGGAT")
3.02
>>> result("TAGCCTAGGTCATGCGGGCAAGTATAGTGTCGGC")
2.59
>>> result("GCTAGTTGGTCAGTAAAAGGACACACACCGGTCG")
0.282
>>> result("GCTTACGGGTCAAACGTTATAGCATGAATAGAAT")
6.15
>>> result("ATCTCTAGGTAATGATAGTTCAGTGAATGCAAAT")
0.986
>>> result("ATCTCTAGGTAACAAGTTCAGTGGAAGAGAGGAC")
1.79
